Experiment Notes: Toxicity liver stage against HepG2, at 10uM
Format: cell-based
Design: test concentration 10 uM, cell line HepG2-A16-CD81EGFP
Cond: human, HepG2-A16-CD81EGFP cells; read-out: INHIBITION
Parameter: cytotoxicity at 10 µM (%)

> print(dat)
                                    molecule              parameter  numeric.value
 1        Cn1c(CC(=O)O)c(Sc2ccccc2)c2ccccc21  cytotoxicity at 10 µM           4.35
 2  CCN(CC)Cc1cn2c(n1)CN(C(=O)c1cc(C)on1)CC2  cytotoxicity at 10 µM           6.17
 3     COCc1cccc(NC(=O)NCCCN(C)S(C)(=O)=O)c1  cytotoxicity at 10 µM         -0.561
 4  Cn1cccc1C(=O)N1CCN2C[C@H](Oc3cccnc3)C[C@H]2C1  cytotoxicity at 10 µM           3.58
 5   Cc1ccc(N(C)C2CCN(C(=O)CCc3ccco3)CC2)nn1  cytotoxicity at 10 µM             -7
 6       Cc1cc(-c2cnc(NC3CC3)nc2-c2ccco2)on1  cytotoxicity at 10 µM          -23.2
 7    CCNC(=O)CCC(=O)N1CCC(Oc2cc(C)ccc2C)CC1  cytotoxicity at 10 µM          -4.59
 8   N#Cc1cnc(NCCCN2C(=O)COc3ccccc32)c(Cl)c1  cytotoxicity at 10 µM          -3.64
 9  CN(C)C(=O)CN1CCC(c2cncc(-c3cccc(Cl)c3)n2)CC1  cytotoxicity at 10 µM          -33.3
10   CCn1nc(C(C)C)cc1C(=O)N1CCOc2ccc(OC)cc21  cytotoxicity at 10 µM           9.27
11         COc1ccc(OC)c2c(C)cc(N(C)CCCO)nc12  cytotoxicity at 10 µM           7.17
12  Cc1cc(CNCc2c(C)n(CC(C)C)c3ccccc23)[nH]n1  cytotoxicity at 10 µM          -1.63
13  CCc1cc(NCC(O)CN2CCCCC2)n2ncnc2n1 (stereo not drawn)  cytotoxicity at 10 µM          -7.45
14        CN(C)C(=O)c1cc2c(nc1NCC1CC1)CCNCC2  cytotoxicity at 10 µM           8.39
15          CCS(=O)(=O)c1ccc(N2CCC(N)CC2)cc1  cytotoxicity at 10 µM          -6.44
16  CN1CCCCCC1C(=O)N1CCN(c2ccccc2C#N)CC1 (stereo not drawn)  cytotoxicity at 10 µM          -7.17
17  CCc1csc(C2CCCN(C(=O)c3cnn(CC)c3)C2)n1 (stereo not drawn)  cytotoxicity at 10 µM           4.73
18              COCC(=O)NCCCn1ncc2c(C)cccc21  cytotoxicity at 10 µM           7.55
19  CSCc1noc(CNC2CCCC(C)(C)C2)n1 (stereo not drawn)  cytotoxicity at 10 µM         -0.268
20  CS(=O)(=O)N[C@@H]1COC[C@@H]2CN(Cc3ccco3)C[C@@H]21  cytotoxicity at 10 µM          -1.43
21  COc1ccc(CNC(Cn2cncn2)c2ccccc2)cc1C (stereo not drawn)  cytotoxicity at 10 µM          -4.33
22      CCCN(CCC)S(=O)(=O)c1cc(NC(C)=O)ccc1C  cytotoxicity at 10 µM           -148
23  c1cc(CN2CCC(c3nnc4n3CCCCC4)CC2)c2nonc2c1  cytotoxicity at 10 µM          -1.08
24  COC(C)C(=O)N(CC(N)=O)Cc1cccc(Oc2ccccc2)c1 (stereo not drawn)  cytotoxicity at 10 µM           1.46
25  c1ccc(-n2ncc(CNC3CCc4ncnn4C3)n2)cc1 (stereo not drawn)  cytotoxicity at 10 µM          -3.38
26  COCCn1c2c(ccc1=O)CC(NS(C)(=O)=O)CC2 (stereo not drawn)  cytotoxicity at 10 µM            8.8
27  CC(C)=CCN1CCC(c2nnc(CN3CCN(C)CC3)n2C)CC1  cytotoxicity at 10 µM          -7.54
28  CN(C)C(=O)N1C[C@H]2CC[C@@H](C1)N(Cc1nnc(-c3ccccc3)o1)C2  cytotoxicity at 10 µM            4.6
29  CCc1cnc(CN(C(C)=O)C2CCN(CCc3cccs3)C2)o1 (stereo not drawn)  cytotoxicity at 10 µM          -6.78
30  CN1CCC(Cc2noc(-c3cn(Cc4ccccc4Cl)nn3)n2)CC1  cytotoxicity at 10 µM          -3.28
31  Cc1nnsc1CN1C[C@H]2CC[C@@H](C1)N(Cc1ccccc1)C2  cytotoxicity at 10 µM           9.47
32        Cc1cnn(CCCNCc2csc(COc3ccccc3)n2)c1  cytotoxicity at 10 µM           5.34
33  CSCc1noc(CN(C)C(C)c2nc(C)sc2C)n1 (stereo not drawn)  cytotoxicity at 10 µM            8.2
34              Cc1cc(C(=O)Nc2nnn[nH]2)ccc1I  cytotoxicity at 10 µM          -2.08
35     CCOc1ccc(NC(=O)N(CCC#N)Cc2ccccn2)cc1F  cytotoxicity at 10 µM             -6
36                    OCc1ccc(OCC(F)(F)F)cc1  cytotoxicity at 10 µM          -11.9
37  Cc1cc(C(=O)N2CCCC(n3cncn3)C2)on1 (stereo not drawn)  cytotoxicity at 10 µM          -22.5
38  CCC(=O)N1CCN(C(=O)c2ccc(OC)o2)[C@H]2CS(=O)(=O)C[C@H]21  cytotoxicity at 10 µM          0.224
39           CS(=O)(=O)NCCNc1ncnc2cccc(F)c12  cytotoxicity at 10 µM           3.17
40     NC(=O)Cn1ccc(O)c(Cc2ccc(Cl)cc2Cl)c1=O  cytotoxicity at 10 µM           8.85
41     CCn1ccc(-c2cc(C(=O)O)n3ncc(Cl)c3n2)n1  cytotoxicity at 10 µM          -3.05
42  COCCn1ccnc1CN1CCc2[nH]cnc2C1c1ccccn1 (stereo not drawn)  cytotoxicity at 10 µM           -3.3
43  COCCCNC1N=C(n2nc(C)cc2C)Nc2sc3c(c21)CCCC3 (stereo not drawn)  cytotoxicity at 10 µM           10.6
44  O=C(O)CC1COCCN1Cc1ccccc1-c1ccccc1 (stereo not drawn)  cytotoxicity at 10 µM           12.9
45   CC(=O)NCC(=O)N1CCN(Cc2cccnc2)c2ncccc2C1  cytotoxicity at 10 µM           -114
46  O=C(NC1CCCN(c2ccc(OC(F)F)cc2)C1)c1cnc[nH]1 (stereo not drawn)  cytotoxicity at 10 µM          -2.15
47  CC(=O)N1CC(c2ncn(C(C)C)n2)c2cc(C(=O)NC(C)C)ccc21 (stereo not drawn)  cytotoxicity at 10 µM           8.22
48  Cc1cccc(CNC(=O)NCC2CCN(Cc3ncc[nH]3)C2)c1 (stereo not drawn)  cytotoxicity at 10 µM           1.86
